# Tested on: Epidermophyton floccosum
# assay_comment: Antifungal activity against Epidermophyton floccosum C 114 by agar dilution method
# Assay type: functional
reported_metric: MIC (µg/mL)
Answer with a number only, understood to be in µg/mL.

CCC(=O)c1ccc2ccccc2c1 = 40
CC(Cl)C(=O)c1ccccc1 (centres undefined) = 15
CCC(O)c1ccc(OC)c(OC)c1 (centres undefined) = 50
CCC(=O)c1cc2ccccc2c2ccccc12 = 20
COc1ccc([C@H](O)[C@H](C)Br)cc1OC = 50

**Query** So what does the record say about MIC for CC(C)C(O)c1cc2ccccc2c2ccccc12 (centres undefined) ?
**Result** 10

**Query** Can you share its MIC? I mean this compound: CC(C)C(=O)c1cc2ccccc2c2ccccc12
**Result** 20

**Query** Recorded MIC of CCC(=O)c1ccc2c(c1)OCO2 , please.
**Result** 40

**Query** Would you mind telling me what MIC value was observed for CC(Cl)C(=O)c1cc2ccccc2c2ccccc12 (centres undefined) ?
**Result** 15

**Query** Can you share its MIC? I mean this compound: COc1ccc(C(=O)C(C)Cl)cc1OC (centres undefined)
**Result** 0.15

---

# Tested on: Trichophyton rubrum
# assay_comment: Antifungal activity against Trichophyton rubrum C 113 by agar dilution method
# Type: functional
reported_metric: MIC

# count of solved cases: 5
CCC(=O)c1ccc2ccccc2c1 = 40 µg/mL
COc1ccc([C@H](O)[C@H](C)Br)cc1OC = > 50 µg/mL
CC(C)(C)C(=O)c1ccccc1 = > 50 µg/mL
COc1cc(C(=O)C(C)Cl)cc(OC)c1OC (centres undefined) = 10 µg/mL
C=CCc1ccc(OC)c(OC)c1 = > 50 µg/mL

**Query** Entry CCC(=O)c1cc2ccccc2c2ccccc12 : reported MIC = ?
**Result** 6.25 µg/mL

**Query** Item under review: CC(Br)C(=O)c1ccc2c(c1)OCO2 (centres undefined) . Reported MIC?
**Result** 12.5 µg/mL

**Query** Reported MIC for CCC(=O)c1ccc(OC)c(OC)c1 : what is it?
**Result** > 50 µg/mL

**Query** If you can, please state the reported MIC value of COc1ccc(C(=O)C(C)C)cc1OC .
**Result** 50 µg/mL

**Query** Find the recorded MIC belonging to C=CCc1ccc(O)c(OC)c1 and report it.
**Result** > 50 µg/mL

**Query** I have this compound here, CCC(O)c1ccc(OC)c(OC)c1 (centres undefined) , and I need its recorded MIC.
**Result** > 50 µg/mL

**Query** Endpoint output: MIC of COc1ccc(C(=O)C(C)Cl)cc1OC (centres undefined) . Value?
**Result** 10 µg/mL

**Query** Which measured MIC value corresponds to CC(Cl)C(=O)c1ccccc1 (centres undefined) ?
**Result** 12.5 µg/mL

**Query** Which MIC is listed for CCC(O)c1ccc2ccccc2c1 (centres undefined) ?
**Result** 40 µg/mL

---

// reported MIC for each item listed
# Test system: Trichophyton rubrum
# assay_comment: Antifungal activity against Trichophyton rubrum C 113 by agar dilution method
# Assay type: functional

**Query** Param item = c1ccc2ccccc2c1 ; retrieve measured MIC.
**Result** > 50 mg/L

**Query** Item CC(C)C(=O)c1ccc2ccccc2c1 has what recorded MIC?
**Result** > 50 mg/L

---

# System: Trichophyton mentagrophytes
# assay_comment: Antifungal activity against Trichophyton mentagrophytes ATCC by agar dilution method
# Format: functional
MIC values for the compounds below.
Give the quantity in µg/mL, number only.

# example entries with known answers
CC(C)C(=O)c1ccc2ccccc2c1 = 25
CCC(=O)c1cc2ccccc2c2ccccc12 = 3
CC(C)C(=O)c1cc2ccccc2c2ccccc12 = 6.25
COc1cc(C(=O)C(C)Cl)cc(OC)c1OC (configuration not stated) = 15
CC(=O)N1CCN(c2ccc(OCC3COC(Cn4ccnc4)(c4ccc(Cl)cc4Cl)O3)cc2)CC1 (configuration not stated) = 12.5

**Query** Which MIC is reported for this compound? C[C@@H]1[C@H](O)[C@@H](C)/C=C/C=C/C=C/C=C/C=C/C=C/C=C/[C@H](O[C@@H]2O[C@H](C)[C@@H](O)[C@H](N)[C@@H]2O)C[C@@H]2O[C@](O)(C[C@@H](O)C[C@@H](O)[C@H](O)CC[C@@H](O)C[C@@H](O)CC(=O)O[C@H]1C)C[C@H](O)[C@H]2C(=O)O
**Result** 6.25

**Query** Find the recorded MIC belonging to CCC(O)c1ccc2ccccc2c1 (configuration not stated) and report it.
**Result** 25

**Query** What measured MIC goes with COc1cc(C(=O)C(C)Br)cc(OC)c1OC (configuration not stated) ?
**Result** 12.5

**Query** Query: MIC; subject: CC(Cl)C(=O)c1cc2ccccc2c2ccccc12 (configuration not stated)
**Result** 3

**Query** Entry COc1ccc(C(=O)C(C)Br)cc1OC (configuration not stated) : reported MIC = ?
**Result** 25

**Query** MIC lookup needed for CCC(=O)c1ccc2ccccc2c1 , thanks.
**Result** 25

**Query** Bench note: what MIC did COc1ccc(C(=O)C(C)Cl)cc1OC (configuration not stated) show?
**Result** 12.5

**Query** Need MIC, item CC(Cl)C(=O)c1ccccc1 (configuration not stated)
**Result** 10

**Query** Look up MIC for this compound: CC(C)C(O)c1ccc2ccccc2c1 (configuration not stated)
**Result** 12.5

**Query** MIC for CC(Br)C(=O)C1CCCCC1 (configuration not stated) ?
**Result** 50

---

# Test system: Trichophyton rubrum
# assay_comment: Antifungal activity against Trichophyton rubrum C 113 by agar dilution method
# Format: functional
reported_metric: MIC

**Query** Fill blank: measured MIC of the molecule CCC(=O)c1ccc(OC)cc1 is ____.
**Result** > 50 µg/mL

**Query** # input molecule: CCC(O)c1ccc2c(c1)OCO2 (stereo unspecified) ; wanted: its MIC
**Result** > 50 µg/mL

**Query** Value lookup for MIC; key = CCC(=O)c1ccc2c(c1)OCO2
**Result** > 50 µg/mL

**Query** # query: MIC of entry C/C=C\c1ccc(O)c(OC)c1
**Result** > 50 µg/mL

**Query** Name the reported MIC value associated with the molecule CC(C)C(O)c1cc2ccccc2c2ccccc12 (stereo unspecified)
**Result** 10 µg/mL

---

# Test system: Trichophyton rubrum
# assay_comment: Antifungal activity against Trichophyton rubrum C 113 by agar dilution method
# Assay type: functional
reported_metric: MIC (µg/mL)
# output: bare number, implied unit µg/mL

Answered cases to consult:
CC(Cl)C(=O)c1ccc2c(c1)OCO2 (stereo unspecified) = 10
CC(C)C(O)c1ccc2ccccc2c1 (stereo unspecified) = 12.5

Moving on to another compound below.
**Query** Item CC(=O)N1CCN(c2ccc(OCC3COC(Cn4ccnc4)(c4ccc(Cl)cc4Cl)O3)cc2)CC1 (stereo unspecified) [KETOCONAZOLE] with Trichophyton rubrum - MIC?
**Result** 15

---

# System: Trichophyton rubrum
# assay_comment: Antifungal activity against Trichophyton rubrum C 113 by agar dilution method
# Type: functional
reported_metric: MIC

Consider the following illustrative entries.
COc1ccc(C(O)C(C)C)cc1OC (stereo not drawn) = > 50 µg/mL
c1ccc2c(c1)ccc1ccccc12 = > 50 µg/mL

Let's switch to this molecule now.
**Query** Please look up its MIC: CCC(O)c1cc(OC)c(OC)c(OC)c1 (stereo not drawn)
**Result** > 50 µg/mL
